All values here come from ChEMBL document CHEMBL3627720.

# System: Striatum
# PROTOCOL: Drug uptake in rhesus monkey striatum using [11C]labeled compound after 30 to 90 mins by PET method
# Type: ADME, tissue-based, Macaca mulatta
# RUN CONDITIONS: in vivo
REPORTED METRIC: Drug uptake

SMILES TEXT	MEASURED
[11CH3]Oc1ccc(-n2c(CCN3C(=O)c4cccc(-c5ccncc5)c4C3=O)nc3ccccc3c2=O)cc1	Active
CC(C)Oc1cccc2c1C(=O)N(CCc1nc3ccccc3c(=O)n1-c1ccc(O[11CH3])cc1)C2=O	Active
Cc1ccc2c(=O)n(-c3ccc4c(cnn4[11CH3])c3)c(CCN3C(=O)c4ccccc4C3=O)nc2c1	Active
CC(C)Oc1cccc2c1C(=O)N(CCc1nc3ncccc3c(=O)n1-c1ccc(O[11CH3])cc1)C2=O	Active
